# System: Escherichia coli TOP10;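 note: peptides expressed intracellularly from a pBAD plasmid library in pooled LB shake-flask culture, induced with 0.3% L-arabinose, DNA abundance read by NGS, three biological replicates, DESeq2 with apeglm shrinkage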
# experiment description: shrunken log2 fold change of peptide-encoding DNA abundance (4.5 h post-induction vs induction); higher = less antimicrobial activity (less host growth inhibition)
# experimental context: time post-induction: 4.5 h; library: site-saturation at positions 5, 18, 19, 20
Record MET whenever shrunken log2 fold change is at 0.004 or higher; record NOT MET when lower.

These recorded examples may help you get a feel for the data.
# seq string, category label
rows = [
    ("RRIRGRPPRLPRPRPRPMRWPRP", "MET"),
    ("RRIRGRPPRLPRPRPRPSWRPRP", "MET"),
    ("RRIRGRPPRLPRPRPRPEVYPRP", "MET"),
    ("RRIRTRPPRLPRPRPRPKNNPRP", "NOT MET"),
    ("RRIRIRPPRLPRPRPRPVWIPRP", "NOT MET"),
]

[Q] Would you say `RRIRQRPPRLPRPRPRPAPWPRP` shows shrunken log2 fold change at minimum 0.004?
[A] MET

[Q] Could you verify whether the entry `RRIRVRPPRLPRPRPRPNYFPRP` shows shrunken log2 fold change of no less than 0.004?
[A] NOT MET

[Q] hey, is shrunken log2 fold change for this one >= 0.004? `RRIRNRPPRLPRPRPRPVSFPRP`
[A] MET

[Q] Could you tell me if the measured shrunken log2 fold change of `RRIRWRPPRLPRPRPRPECTPRP` reaches 0.004 or more?
[A] MET

[Q] Confirm if shrunken log2 fold change reported for the sequence `RRIRHRPPRLPRPRPRPCTTPRP` is 0.004 or above.
[A] NOT MET

[Q] Hi, just wondering whether `RRIRDRPPRLPRPRPRPWVDPRP` shows shrunken log2 fold change of 0.004 or higher.
[A] NOT MET

[Q] Is reported shrunken log2 fold change greater than or equal to 0.004 here: `RRIRLRPPRLPRPRPRPAFYPRP`
[A] MET

[Q] // inclusive: shrunken log2 fold change at least 0.004? input: `RRIRWRPPRLPRPRPRPVLSPRP`
[A] MET

[Q] Given `RRIRARPPRLPRPRPRPLFGPRP` , state whether its shrunken log2 fold change is at least 0.004.
[A] MET

[Q] Hi team, for `RRIRLRPPRLPRPRPRPVEQPRP` , is the recorded shrunken log2 fold change at or above 0.004?
[A] NOT MET

[Q] Textbook exercise: given the entry `RRIRKRPPRLPRPRPRPLFTPRP` , state whether its shrunken log2 fold change is greater than or equal to 0.004.
[A] MET

[Q] Reported shrunken log2 fold change at or above 0.004? `RRIRERPPRLPRPRPRPFGGPRP`
[A] NOT MET

[Q] # bool: shrunken log2 fold change of `RRIRTRPPRLPRPRPRPHVDPRP` >= 0.004
[A] MET

[Q] I'd appreciate it if you could say whether `RRIRKRPPRLPRPRPRPKRYPRP` has shrunken log2 fold change at least equal to 0.004.
[A] MET

[Q] Could you verify whether the entry `RRIRHRPPRLPRPRPRPMRLPRP` shows shrunken log2 fold change of no less than 0.004?
[A] MET

[Q] Given `RRIRERPPRLPRPRPRPLCKPRP` , state whether its shrunken log2 fold change is at least 0.004.
[A] NOT MET

# credit: the supplement of paper PMC9112550
